# System: MS2 coat protein
# EXPERIMENTAL DETAILS: apparent KD of MS2 coat protein; higher = weaker reporter binding
# ASSAY SETUP: Eterna round: R107; input ligand: arginine 13.2 mM
MEASUREMENT KIND: apparent KD of MS2 coat protein (nM)
Record the value in nM, omitting the unit from your answer.

// known answers, use as guide
ACACGAAGCUGAAGGAGCGUGGUAUAAAUUUUUACAUGAGGAUCACCCAUGUUUCAUCAAUCACAGGUAGGUCGCAGAUGCGUGA [JR_SSArginiB_Sub014] :: 19.6
GGCCCGGACUUGGAAUGGGUGUUUCCUUCACGAGGACCGGUACGGCCGCCACUCGAAGACAUGAGGAUCACCCAUGUAGUCGACC [Soleti] :: 20.3
UGACAUUGCUGCGAUACCAGACAUGAGGAUCACCCAUGUACCAAGGUACGAAAAUAACAUGUCCCUUGGCAGCGCAGCAAUGUCU [MAT - Exclusion Theophlline B - Mod of Eli - D4] :: 12.6
AUCGUACCUGAAGAUACCAGCAUGUGAUCAUAACAUGAGGAUCACCCAUGUAAUCAGUGAUGCCCUUGGCAGCUUGAUCGGUACA [Same State - Theophylline B (Freestyle 12)] :: 39.6

Task: Request the reported apparent KD of MS2 coat protein associated with ACCUCAUGUAGAAGGAGCGUCAGAAGCUACAGACAUGAGGAUCACCCAUGUUAGUUGAUCUGACAGGUAGGUCGCUACAGCAGGA [#23 Same State - Arginine B]
Result: 24.1

----------
# System: K4 kissing-loop RNA reporter
# EXPERIMENTAL DETAILS: apparent KD of K4 kissing-loop reporter; higher = weaker reporter binding
# ASSAY SETUP: Eterna round: R107; input ligand: theophylline 20 uM
MEASUREMENT KIND: apparent KD of K4 kissing-loop reporter (nM)
Record the value in nM, omitting the unit from your answer.

GUUACGCAUGGAAGGAGCGCAGGCUCAACUUGAAGCUCAGUGAUGUUGAGCAAAUUAAAACUGCAGGUAGGUCGCCAUGUGUAAC [Ex Arginine B K4 27] :: 644
UCUGGAGCAUAUGAUACCAGCAGUGAGAGACAGGAAGUAUAGUGAUGUUAUAUGAGAGAAUGCCCUUGGCAGCGUGUGCAGUGGG [SSTheophylB.O] :: 119

# evaluate next
Task: Request the reported apparent KD of K4 kissing-loop reporter associated with AAUGUGCAGGGAAGGAGCGUAGUCCAGUGCUGUUGGAGUUAGAUACCAGUGAUGUUGGUUAUACAGGUAGGUCGCCCUAAAGCGC [whbob_Ex_Arginine_B_2th161]
Result: 161

----------
# Test system: K4 kissing-loop RNA reporter;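 further: bound reporter read as fluorescence of individual clusters on recovered sequencing chips by microscopy, with normalized cluster intensities fitted with a binding model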
# EXPERIMENTAL DETAILS: apparent KD of K4 kissing-loop reporter; higher = weaker reporter binding
# ASSAY SETUP: Eterna round: R107; input ligand: tryptophan 2.4 mM
MEASUREMENT KIND: apparent KD of K4 kissing-loop reporter (nM)
Record the value in nM, omitting the unit from your answer.

// known answers, use as guide
AAAUAGGUGUGCGAUACCAGCCGGAGUGAUGUUCCGUGUUGUACUGGCUGCACCUACGCCGGCCCUUGGCAGCGUGCUCCAUUUA [Enonin] :: 148
AGGCCACACAGCGAGUGAUGUUUGCGUUAUCGAGGACCGGUACGGCCGCCACUCGGCCUUUAGCGCCUUACCAAUUAGGUGUUGC [theeternabot_sameState_KL_Trp_A_46] :: 647
AACGUUUUGAGAAGGAGCGCGUUCAGCAGUGAUGUUGCUUUACUUCAAUUUCUAGAUAAUUCGCAGGUAGGUCGCUCAAUACGUA [JR_Nu_ExcArginiB_Sub023] :: 527
UGAUACCAGACGGCCGCCACUAGAGCUAGCAAAGCUAGCAAGUGAUGUUUGAGGAGUGAUGUUCCUAGGACCGGGUCUGGUAUCU [TrypBX 2 #Palindromic #SwitchBubble #StaticStem] :: 39.9
UUGUUUGGUUGAGAGGUUGGGCGAGAUGAUACCAGUAGAGAAGAGUACCCUUGGCAGCAUAGGAAAGAUAUAGUGAUGUUGUAUA [SSTheophA.Q] :: 309
UGAUACCAGACGGCCGCCACUGGGACCGGGAGUGAUGUUCCAAAUAAAAGAAGCUCGGCCGCCACUAGGACCGGGUCUGGUAUCU [TrypBX 21 #DoubleAptamer #SwitchBubble] :: 182
UGUCAUUGGUCUGAUACCAGUCCCUUGGCAGCCAAAUGGAGUGAUGUUCCAAGGAUACCAGACCCUUGGCAGCAGACCGAUGACU [TheoBS 26 #DoubleAptamer #SwitchBubble] :: 499
GUACGGCGGGCGGCCGCCACUGGUAUACGAGUGAUGUUCGGAUAUACGUGAUGUAUGGUAAUUAACAGGACCGGGUCAGGGCCGG [whbob_SS_Tryp_B_t23] :: 119
GGAGGCUAUGCAGGAUAUAGUCGGUUGAGUGAUGUUUAACGACUAAACCUUCUAAGUCACAGCCCGCUAGAAGGGCAUAGCCUCC :: 266
UCGAAAUGCGUCUCCUAGUUACUCCGGGAAGGAGCGUGGAUAACCGCAGGUAGGUCGCCCGGAAGCCGGACCAGUGAUGUUGGUC [Exclusion Arginine A Gf 29] :: 182

Task: Request the reported apparent KD of K4 kissing-loop reporter associated with AAAUUUUAAAGUGAUACCAGACAUCUCAAUUACAUUAAUAAAGCUAAGUGAUGUUUAGCAGUCCCUUGGCAGCACAAUUUAAUUA [JR_SSTheophyB_Sub011]
Result: 281

Task: Request the reported apparent KD of K4 kissing-loop reporter associated with UAGUCAUACAGAGGAUAUCGUAUGAGUGAUGUUCAUACGACAUAAUCGAGUUGUAUCGAUGUUCGACGAGAAGGCUGUAUGACUA [FMN B Ex t1b]
Result: 111

----------
# Tested on: MS2 coat protein
# EXPERIMENTAL DETAILS: apparent KD of MS2 coat protein; designed switch direction (-1 OFF switch, 1 ON switch): 1; higher = weaker reporter binding
# ASSAY SETUP: input ligand: microRNA oligo, concentration not stated
MEASUREMENT KIND: apparent KD of MS2 coat protein (nM)
Record the value in nM, omitting the unit from your answer.

// known answers, use as guide
CUGAGCGAUCAAGGAUAUCACGUCGAAUAGACGUGAGAAGGUGAUCAUAACAUGAGGAUCACCCAUGUAUUACAUGAAGCUCAG [SSNG1/2-A1] (Eterna round: R96, puzzle: Same State NG 1) :: 536
GGAUUGGAGGCAGGAUAUGGGCUCAGAACAUGAGGAUCACCCAUGUAAAACGGCGCGAUGCGCCACCAGAAGGGCCUCCGAUCG [Tiaonbira] (Eterna round: R96, puzzle: Same State NG 2) :: 23.8
AGCUAUUACGAAGGAUAUUGUAACAUGAGGAUCACCCAUGUUUACAUGAUUAAUUGUGAUCACGUCGAGAAGGUUGUACUAACA [SameState NG2 #33] (Eterna round: R96, puzzle: Same State NG 2) :: 16.5
AAACGGGCUACAGGAUAUGCUCGAUAAACUUCAGUAGAAGGGUGGCCUUAUCAACGAACAUGAGGAUCACCCAUGUUCUACAAC [Dianrisole] (Eterna round: R96, puzzle: Same State NG 1) :: 28.3
GCCAUCGCAUGAGGAUAUGGCACCGUUUCGGUGCCAGAAGGCAUGUCAAUUGACAUGAGGAUCACCCAUGUAUUAUUGAUGGCA [JL Fiskers NG1ss - 33 mod 7] (Eterna round: R96, puzzle: Same State NG 1) :: 448

Task: Request the reported apparent KD of MS2 coat protein associated with CUGCUCGGGUGAGGAUAUGCCGCCGUUUCGGCUGCAGAAGGUGCUACGUUACAUGAGGAUCACCCAUGUCUCUGUUGUUUCGUG [salish99_SSNG1_r04_966] (Eterna round: R96, puzzle: Same State NG 1)
Result: 60.7

Task: Request the reported apparent KD of MS2 coat protein associated with UAACAGUACAAUUUAGAUCUACAUGAGGAUCACCCAUGUACUGAGGAUAUCAGCUCGUGUAGAGCUGAGAAGGCAGAAGAACUA [SSNG3/11-A4] (Eterna round: R96, puzzle: Same State NG 3)
Result: 93.4

Task: Request the reported apparent KD of MS2 coat protein associated with GAGGGCGAAAGCGACAUGAGGAUCACCCAUGUCCUCGGAGGGCAGGAUAUCCGGCAGUAGCCGAAGGAGAAGGGUCGAAAAGAA [AK SSNG3-V2-35.1] (Eterna round: R96, puzzle: Same State NG 3)
Result: 35.7

Task: Request the reported apparent KD of MS2 coat protein associated with GCCAUCGCAUGAGGAUAUGGCACCGUUUCGGUGCCAGAAGGCAUGUCAUAAGACAUGAGGAUCACCCAUGUAGUUAAGAUGGCA [JL Fiskers NG1ss - 33 mod 8] (Eterna round: R96, puzzle: Same State NG 1)
Result: 521

Task: Request the reported apparent KD of MS2 coat protein associated with GUGGUCAGACAUGAGGAUCACCCAUGUGGAAUAAAUAAGGAGAAGGAUAUGAAAUAUAGGAUAUAUCAGAAGGUCUGGUUGGUG (Eterna round: R96, puzzle: Same State NG 3)
Result: 59.9

Task: Request the reported apparent KD of MS2 coat protein associated with GCGUUUAACGUAGGAUAUCGACCUACAUGAGGAUCACCCAUGUCUUUGUAAAGUUUUUUUAAUUACGAGAAGGACGUUUUGCAU [JR_SSNG2_Sub071] (Eterna round: R96, puzzle: Same State NG 2)
Result: 89.6

Task: Request the reported apparent KD of MS2 coat protein associated with UUACUCAUGUAAGGAUAUGCAGCCGUUUCGGCUGCAGAAGGUACUAUAAUACAUGAGGAUCACCCAUGUCUUUUUAAUUUUGAC [JL SSNG1 1.27] (Eterna round: R96, puzzle: Same State NG 1)
Result: 34.5

Task: Request the reported apparent KD of MS2 coat protein associated with UAGUGCAUUAGAGGAUAUUCUUACGGAAACGUUAAGACAUGAGGAUCACCCAUGUUGUCACAUGGGAAGAAGGCUGAUGUGCUA [Omei SS(NG)2 Bv4] (Eterna round: R96, puzzle: Same State NG 2)
Result: 390

Task: Request the reported apparent KD of MS2 coat protein associated with GGACGUCGAUAAUAUAACUUCACAUGAGGAUCACCCAUGUCACAGGAUAUGGAUCCUAAUUGGAUCCAGAAGGGUGCGACGUCC [Fiskers NG3ss - 36] (Eterna round: R96, puzzle: Same State NG 3)
Result: 61.8

Task: Request the reported apparent KD of MS2 coat protein associated with UUAAUGAAGUAAGGAUAUACAUGAGGAUUUCUCGUAGAAGGUACUAUACAUGAGGAUCACCCAUGUGCCGGUCAGAAGACUGGA [Mat - Same State NG 1 - JL mod - D10] (Eterna round: R96, puzzle: Same State NG 1)
Result: 301

Task: Request the reported apparent KD of MS2 coat protein associated with GUGGCCCAGGCACAGGAUAUGUUUCUCGUAACAUGAGGAUCACCCAUGUGCCUAUGAGAUUUAAUGCAGAAGGGUGCACGCCACG [Atiinbe] (Eterna round: R96, puzzle: Same State 2)
Result: 61.3

Task: Request the reported apparent KD of MS2 coat protein associated with AUGUUUAAUGCAGGAUAUGAUUAACAUGAGGAUCACCCAUGUGGUGUUGUGAGUAAGGAGAGUGAUCAGAAGGGCAUUUUUUUU [JMF's solution 101] (Eterna round: R96, puzzle: Same State NG 2)
Result: 516

Task: Request the reported apparent KD of MS2 coat protein associated with AGGGUACAUGAGGAUCACCCAUGUGGGUCGGUCGCAGGAUAUGCCCGUGGGCGCUGGCGGGCAGAAGGGUGCCGAA [Same State1-IX] (Eterna round: R96, puzzle: Same State 1)
Result: 187
